Target: T1, human SIRPγ isoform 1 (human, UniProt Q9P1W8 29-147)
T1 construct: also called SIRPg; sirpg
T1 sequence (Q9P1W8 29-147 limits assumed): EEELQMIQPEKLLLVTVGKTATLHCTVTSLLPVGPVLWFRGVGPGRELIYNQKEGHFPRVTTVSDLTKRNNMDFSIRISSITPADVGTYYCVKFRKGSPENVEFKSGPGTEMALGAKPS
Test: SPR, Langmuir fit
# key: entry, value: koff
Quick reminder: number only, in s⁻¹, skip the unit.

Example binders with recorded koff:
# binder S202 (scFv, V domains shown) VH: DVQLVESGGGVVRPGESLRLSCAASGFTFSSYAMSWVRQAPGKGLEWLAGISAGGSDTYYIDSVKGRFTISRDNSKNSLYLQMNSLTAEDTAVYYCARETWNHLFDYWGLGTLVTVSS VL: ALTQPASVSANPGETVKITCSGGGYYSTYYGWYQQRSPGSAPVTVIHSDDKRPSDIPSRFSGSASGSAATLTITGVRVEDEAVYYCAGYDGRTYLNTFGAGTTLTVL ; its koff = 4.44e-05

// field: koff; key: S16 (scFv, V domains shown, also called clone 16) VH: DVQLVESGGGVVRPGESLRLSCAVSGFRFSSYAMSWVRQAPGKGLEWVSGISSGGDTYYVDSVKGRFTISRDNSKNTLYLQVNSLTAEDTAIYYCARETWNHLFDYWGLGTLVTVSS VL: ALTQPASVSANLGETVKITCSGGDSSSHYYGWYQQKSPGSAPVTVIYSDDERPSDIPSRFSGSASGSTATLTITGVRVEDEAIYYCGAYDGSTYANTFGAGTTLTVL ; value = 8.17e-05

Summary for this binder, S132 (scFv, V domains shown) VH: DVQLVESGGGVVRPGESLRLSCAASGFSFRSYAMNWVRQAPGEGLEWVSRINSGGGGTDYADSVKGRFTISRDNSKNTLYLQMNSLRAEDTAVYYCAKQYDWNSFFDYWGLGALVTVSS VL: ETVLTQSPATLSVSPGERATLSCRASQTVGSKLAWHQQKPGQAPRLLIYDASNRATGIPDRFSGSGSGTDFTLTISSPQTEDSAVYYCQQYYYWPPYRFGGGTKVEIK : koff is 1.05e-05

---
# koff of S76 (scFv, V domains shown, also called clone 76) VH: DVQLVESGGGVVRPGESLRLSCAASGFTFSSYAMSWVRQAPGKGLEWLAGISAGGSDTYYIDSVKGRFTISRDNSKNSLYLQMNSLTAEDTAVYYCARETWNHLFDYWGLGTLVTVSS VL: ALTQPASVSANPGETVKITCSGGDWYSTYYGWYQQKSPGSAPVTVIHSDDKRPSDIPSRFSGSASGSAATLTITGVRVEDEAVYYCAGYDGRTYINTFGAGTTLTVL = 0.000177

Note to self: koff recorded for S21 (scFv, V domains shown, also called clone 21; scFv-Fc form of AB21) VH: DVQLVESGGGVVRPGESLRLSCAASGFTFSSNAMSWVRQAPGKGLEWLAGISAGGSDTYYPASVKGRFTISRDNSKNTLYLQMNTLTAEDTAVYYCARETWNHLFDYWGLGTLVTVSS VL: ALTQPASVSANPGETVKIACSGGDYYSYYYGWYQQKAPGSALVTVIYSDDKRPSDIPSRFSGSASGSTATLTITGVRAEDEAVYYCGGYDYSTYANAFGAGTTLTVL was 0.000184
